# measurement_description: Comparative bioavailability: single oral 150, 300, 450 mg MNTX tablets vs 12 mg SC injection, crossover
# Assay type: in vivo, human
# assay_setup: human, plasma, sc, 12 mg, MNTX 12 mg SC Injection, single dose, mean; read-out: AUC0-∞
experimental_readout: AUC(0-inf) (ng·h/mL)
I only need the number, in ng·h/mL, no unit after it.

Q: Given the molecule C[N@+]1(CC2CC2)CC[C@]23c4c5ccc(O)c4O[C@H]2C(=O)CC[C@@]3(O)[C@H]1C5.[Br-] , what is its reported AUC(0-inf)?
Result: 269

----------
# measurement_description: Food effect study: single oral 450 mg MNTX fasted vs high-fat breakfast, 2-period crossover
# Assay type: in vivo, human
# assay_setup: both sexes, human, plasma, oral, 450 mg, 450 mg Single-Dose Fed, harmonic mean
experimental_readout: half-life

Q: Given the compound C[N@+]1(CC2CC2)CC[C@]23c4c5ccc(O)c4O[C@H]2C(=O)CC[C@@]3(O)[C@H]1C5.[Br-] , what is its reported half-life?
Result: ~17 h

Ref: patent US20190231771A1
